# System: IL-6 levels in human whole blood stimulated with a TLR2 agonist
# EXPERIMENT NOTES: IRAK4 Whole Blood Assay (lipoteichoic acid/TLR2-stimulated IL-6)
# Format: cell-based
# MEASUREMENT PARAMETERS: Homo sapiens, lipoteichoic acid 10 μg/mL, IL-6 readout
The label yes is reserved for EC50 strictly under 500 nM; no covers values equal to or above it.

Record excerpt, results attached:
INSERT INTO assay_data (compound, discrete_label) VALUES
  ('COc1cnc(N2CC[C@@H](Nc3cc(-c4cnn5cc(C#N)cnc45)ncc3C(=O)NC[C@@H](F)C(C)(C)O)C2)nc1', 'no'),
  ('CC(C)(O)[C@H](F)CNC(=O)c1cnc(-c2cnn3cc(Cl)cnc23)cc1Nc1cnn(CC(F)F)c1', 'yes');

Please indicate whether the reported EC50 of CC(C)Nc1cc(-c2cnc3cc(C#N)cnn23)ncc1C(=O)NCCC1(O)CCCC1 is strictly below 500 nM.
yes

Please indicate whether the reported EC50 of CC(C)Nc1cc(-c2cnc3cc(C#N)cnn23)ncc1C(=O)NCC(F)C1CC(C)OC(C)C1 (single isomer, unassigned) [Example 176] is strictly below 500 nM.
no
